systemUnderTest: hDcpS (human decapping scavenger enzyme) (Homo sapiens)
Sequence (Q96C86 2-337): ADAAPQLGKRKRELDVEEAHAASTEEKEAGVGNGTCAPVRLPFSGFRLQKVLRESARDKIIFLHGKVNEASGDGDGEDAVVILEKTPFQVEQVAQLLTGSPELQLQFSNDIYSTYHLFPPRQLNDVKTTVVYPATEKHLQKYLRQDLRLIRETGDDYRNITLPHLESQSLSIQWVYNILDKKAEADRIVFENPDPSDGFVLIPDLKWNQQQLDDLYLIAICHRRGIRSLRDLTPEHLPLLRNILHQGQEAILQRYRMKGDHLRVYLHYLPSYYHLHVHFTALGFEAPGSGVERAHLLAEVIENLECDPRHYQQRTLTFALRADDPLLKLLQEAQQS
quantityMeasured: Kd (nM)
I only need the number, in nM, no unit after it.

Value lookup for Kd; key = `CNc1nc2c(c(=O)[nH]1)[n+](C)cn2[C@@H]1O[C@H](COP(=O)(O)O)[C@@H](O)[C@H]1O`
286

----------
Target sequence: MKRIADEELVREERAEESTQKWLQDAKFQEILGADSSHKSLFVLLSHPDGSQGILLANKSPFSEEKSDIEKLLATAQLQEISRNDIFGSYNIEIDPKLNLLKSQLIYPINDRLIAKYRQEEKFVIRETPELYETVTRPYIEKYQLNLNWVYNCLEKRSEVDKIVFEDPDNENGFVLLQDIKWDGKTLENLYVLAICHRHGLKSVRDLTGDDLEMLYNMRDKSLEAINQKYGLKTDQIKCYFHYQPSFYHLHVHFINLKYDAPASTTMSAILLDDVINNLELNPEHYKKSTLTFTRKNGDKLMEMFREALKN
quantityMeasured: pKd
To interpret pKd, take it as minus log10 of a concentration measured in moles per litre.

Value lookup for pKd; key = CNc1nc2c(c(=O)[nH]1)[n+](C)cn2[C@@H]1O[C@H](COP(=O)(O)O)[C@@H](O)[C@H]1O [m2m7GMP]
6.87

Every entry's value here was drawn from paper PMC6812366.
